- ASSAYED_SYSTEM: human dopamine D2L receptor (Homo sapiens)
- Construct: expressed in transfected cells; host or cells: CHO cells (frozen membranes)
- Sequence (P14416 whole entry): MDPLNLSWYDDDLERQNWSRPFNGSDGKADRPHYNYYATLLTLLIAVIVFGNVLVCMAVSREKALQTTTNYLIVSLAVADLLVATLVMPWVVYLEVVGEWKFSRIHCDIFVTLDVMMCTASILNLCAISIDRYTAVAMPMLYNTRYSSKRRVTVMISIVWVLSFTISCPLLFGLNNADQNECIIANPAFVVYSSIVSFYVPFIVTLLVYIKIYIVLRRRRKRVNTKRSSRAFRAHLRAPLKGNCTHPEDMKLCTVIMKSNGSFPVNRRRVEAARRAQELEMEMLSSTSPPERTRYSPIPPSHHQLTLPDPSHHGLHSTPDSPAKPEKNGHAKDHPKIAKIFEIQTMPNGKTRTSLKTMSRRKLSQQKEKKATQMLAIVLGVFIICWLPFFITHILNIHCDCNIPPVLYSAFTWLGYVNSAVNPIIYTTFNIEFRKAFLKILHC
- EXPERIMENT_DESCRIPTION: In vitro assay for D2 receptor binding
- EXPERIMENTAL_PARAMETERS: membranes of human D2L-transfected CHO cells, [3H]Spiperone radioligand; read-out: D2 (pIC50) (converted)
METRIC_NAME: IC50 (nM)

a. C[C@@H]1c2ccccc2[C@H]2C[C@H](CN(C)C)O[C@@H]2c2cc(N(C)C)ccc21
b. CNCC1CC2c3ccccc3C(C)c3ccc(F)cc3C2O1 (single isomer, unassigned) [Compound 74]
c. C=C1c2ccccc2[C@H]2C[C@H](CN(C)C)O[C@@H]2c2ccccc21
# rank above entries by IC50 (max first, min last) // format: requested-order list of labels
a, b, c

* * *

- ASSAYED_SYSTEM: human cloned 5-HT2A receptor (Homo sapiens, UniProt P28223)
- Construct: expressed in transfected cells; host or cells: L929 cells
- EXPERIMENT_DESCRIPTION: In vitro binding affinity for 5-HT2A receptor (radioligand binding)
- EXPERIMENTAL_PARAMETERS: human cloned 5-HT2A receptor expressed in L929 cells, [125I]R91150 radioligand; read-out: 5-HT2A (pIC50) (converted)
METRIC_NAME: IC50 (nM)

Entry under test: "CNC[C@H]1C[C@@H]2c3ccccc3[C@@H](OC(C)C)c3ccc(F)cc3[C@H]2O1" . Its IC50 was 316

I. CCNC[C@H]1C[C@@H]2c3ccccc3[C@@H](OC)c3ccc(F)cc3[C@H]2O1
II. CCNC[C@H]1C[C@@H]2c3ccccc3[C@H](O)c3ccc(F)cc3[C@H]2O1
From the recorded data, which exceeds the other in IC50: I or II ? Reply briefly: the label of your chosen item.
I
(I: 1260 nM, II: 20 nM)

* * *

- ASSAYED_SYSTEM: human cloned 5-HT2C receptor (Homo sapiens)
- Construct: expressed in transfected cells; host or cells: CHO cells
- Sequence (P28335 33-458): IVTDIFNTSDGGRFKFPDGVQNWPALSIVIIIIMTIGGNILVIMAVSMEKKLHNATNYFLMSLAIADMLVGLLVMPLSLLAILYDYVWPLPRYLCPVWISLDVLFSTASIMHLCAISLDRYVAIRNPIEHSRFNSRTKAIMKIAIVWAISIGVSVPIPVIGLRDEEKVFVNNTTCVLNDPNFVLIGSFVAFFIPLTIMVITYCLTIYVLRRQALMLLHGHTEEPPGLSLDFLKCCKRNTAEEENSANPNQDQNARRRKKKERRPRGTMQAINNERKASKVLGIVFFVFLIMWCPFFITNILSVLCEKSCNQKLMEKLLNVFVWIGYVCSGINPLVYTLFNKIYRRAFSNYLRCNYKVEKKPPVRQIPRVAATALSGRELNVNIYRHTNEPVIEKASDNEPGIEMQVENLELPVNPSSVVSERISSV
- EXPERIMENT_DESCRIPTION: In vitro binding affinity for 5-HT2C receptor (radioligand binding)
- EXPERIMENTAL_PARAMETERS: human cloned 5-HT2C receptor expressed in CHO cells, [3H]mesulergine radioligand; read-out: 5-HT2C (pIC50) (converted)
METRIC_NAME: IC50 (nM)

Some molecules with recorded IC50:
Looking up "C=C1c2ccccc2[C@H]2C[C@H](CN(C)C)O[C@@H]2c2ccccc21" , I found its IC50 recorded as 3.98

Lab book: IC50 of CNC[C@@H]1C[C@H]2c3ccccc3C(C)c3ccc(F)cc3[C@@H]2O1 (mixture of isomers) noted as 200

Documented IC50 of "CN(C)C[C@H]1C[C@@H]2c3ccccc3C(=O)c3ccc(F)cc3[C@H]2O1" : 79.4

Consider CCNC[C@H]1C[C@@H]2c3ccccc3[C@@H](O)c3ccc(F)cc3[C@H]2O1 (relative stereo) . Its measured IC50 is 5.01

1. C=C1c2ccccc2C2CC(CN(C)C)OC2c2ccccc21 (single isomer, unassigned)
2. CNCC1CC2c3cc(F)ccc3C(C)(O)c3ccccc3C2O1 (single isomer, unassigned) [Compound 114]
3. CCNC[C@H]1C[C@@H]2c3ccccc3[C@H](O)c3ccc(F)cc3[C@H]2O1
Which order do these items take when sorted by rising IC50? List them. # respond with the labels, arranged in the requested order
3, 1, 2

* * *

- ASSAYED_SYSTEM: human cloned 5-HT2C receptor (Homo sapiens, UniProt P28335)
- Construct: expressed in transfected cells; host or cells: CHO cells
- EXPERIMENT_DESCRIPTION: In vitro binding affinity for 5-HT2C receptor (radioligand binding)
- EXPERIMENTAL_PARAMETERS: human cloned 5-HT2C receptor expressed in CHO cells, [3H]mesulergine radioligand; read-out: 5-HT2C (pIC50) (converted)
METRIC_NAME: IC50 (nM)

1. CCNC[C@H]1C[C@@H]2c3ccccc3[C@@H](OC)c3ccc(F)cc3[C@H]2O1
2. CNCC1CC2c3ccccc3C(C)(O)c3ccc(F)cc3C2O1 (single isomer, unassigned) [Compound 125]
3. C=C1c2ccc(F)cc2C2CC(CNC)OC2c2ccccc21 (single isomer, unassigned) [Compound 94]
4. CC1c2ccc(F)cc2C2CC(CN(C)C)OC2c2cc(F)ccc21 (centres unmarked)
Sort the entries above numerically by IC50, high end first. Note for the reader: the ranking is given by listing the labels in the order requested.
2, 1, 4, 3
(2: 6310 nM, 1: 398 nM, 4: 50.1 nM, 3: 20 nM)

P. CNCC1CC2c3ccccc3C(C)c3ccc(F)cc3C2O1 (single isomer, unassigned) [Compound 74]
Q. COC1c2ccccc2C2CC(CNCc3ccccc3)OC2c2cc(F)ccc21 (centres unmarked)
Which record shows the lower IC50: the first, P , or the second, Q ? Pick one and reply with its label.
P

P. CNC[C@H]1C[C@H]2c3cc(F)ccc3C(C)c3ccccc3[C@@H]2O1 (mixture of isomers)
Q. CNCC1CC2c3ccccc3C(C)c3ccc(F)cc3C2O1 (single isomer, unassigned) [Compound 73]
Lab log: flag the item ( P or Q ) with the smaller IC50 figure. Response format: the label of the selected entry.
Q
(Q: 2 nM, P: 50.1 nM)

1. C=C1c2ccc(F)cc2C2CC(CNC)OC2c2ccccc21 (single isomer, unassigned) [Compound 93]
2. CNCC1CC2c3ccccc3C(C)(O)c3ccc(F)cc3C2O1 (single isomer, unassigned) [Compound 126]
For 1 and 2 , which recorded IC50 is lower? # respond with the chosen item's label
1
(1: 3.98 nM, 2: 501 nM)

* * *

- ASSAYED_SYSTEM: human dopamine D2L receptor (Homo sapiens)
- Construct: expressed in transfected cells; host or cells: CHO cells (frozen membranes)
- EXPERIMENT_DESCRIPTION: In vitro assay for D2 receptor binding
- EXPERIMENTAL_PARAMETERS: ratio of D2 pIC50 to NET-inhibition pIC50
METRIC_NAME: D2/NET

As a guide, the following entries are already answered.
D2/NET in this record for CCNC[C@H]1C[C@@H]2c3ccccc3[C@@H](O)c3ccc(F)cc3[C@H]2O1 (relative stereo) [Compound 106] : 0.67

Note to self: D2/NET recorded for CN(C)C[C@H]1C[C@@H]2c3ccccc3C(=O)c3ccc(F)cc3[C@H]2O1 [Compound 12] was <0.83

Documented D2/NET of CNCC1CC2c3ccccc3C(C)c3ccc(F)cc3C2O1 (single isomer, unassigned) [Compound 74] : 0.74

What the record says about C=C1c2ccccc2C2CC(CN(C)C)OC2c2ccccc21 (single isomer, unassigned) [Compound 24] : D2/NET is <0.65

More entries:
Sure, the documented D2/NET for C=C1c2ccccc2[C@@H]2C[C@@H](CNC)O[C@H]2c2cc(F)ccc21 [Compound 95] is 0.67

For this compound ( CNC[C@H]1C[C@@H]2c3ccccc3[C@@H](OC(C)C)c3ccc(F)cc3[C@H]2O1 [Compound 63] ), measured D2/NET is <0.92

Kindly note the recorded D2/NET for CNC[C@H]1C[C@@H]2c3ccccc3[C@H](O)c3ccc(F)cc3[C@H]2O1 [Compound 34] , which is <0.77

Documented D2/NET of CCNC[C@H]1C[C@@H]2c3ccccc3[C@@H](OC)c3ccc(F)cc3[C@H]2O1 [Compound 110] : <0.62

Note to self: D2/NET recorded for CNCC1CC2c3ccccc3C(C)(O)c3ccc(F)cc3C2O1 (single isomer, unassigned) [Compound 124] was <0.77

// sample C=C1c2ccc(F)cc2C2CC(CN(C)C)OC2c2cc(F)ccc21 (stereo not drawn) [Compound 29] , its D2/NET was <0.72

Item: C=C1c2ccc(F)cc2C2CC(CNC)OC2c2ccccc21 (single isomer, unassigned) [Compound 93] | D2/NET: 0.73

response.value for OC1c2ccccc2C2CC(CNCc3ccccc3)OC2c2cc(F)ccc21 (stereo not drawn) [Compound 109] (field: D2/NET) = <0.92

Cited source for all entries: patent US20070197525A1
